target: T1, recombinant CD22 extracellular domain; assay: ELISA on plates coated with recombinant CD22 extracellular domain (coating 2, 0.2, 0.02 or 0.002 ug/ml per paragraph 227; the sheet does not say which), anti-human IgG-HRP, read at 450 nm
T1 construct: Kept apart from m18, which is cell-surface CD22; also called CD22 (analyte in the BIAcore runs); CD22 ECD
T1 sequence (chain, as listed by the source limits assumed): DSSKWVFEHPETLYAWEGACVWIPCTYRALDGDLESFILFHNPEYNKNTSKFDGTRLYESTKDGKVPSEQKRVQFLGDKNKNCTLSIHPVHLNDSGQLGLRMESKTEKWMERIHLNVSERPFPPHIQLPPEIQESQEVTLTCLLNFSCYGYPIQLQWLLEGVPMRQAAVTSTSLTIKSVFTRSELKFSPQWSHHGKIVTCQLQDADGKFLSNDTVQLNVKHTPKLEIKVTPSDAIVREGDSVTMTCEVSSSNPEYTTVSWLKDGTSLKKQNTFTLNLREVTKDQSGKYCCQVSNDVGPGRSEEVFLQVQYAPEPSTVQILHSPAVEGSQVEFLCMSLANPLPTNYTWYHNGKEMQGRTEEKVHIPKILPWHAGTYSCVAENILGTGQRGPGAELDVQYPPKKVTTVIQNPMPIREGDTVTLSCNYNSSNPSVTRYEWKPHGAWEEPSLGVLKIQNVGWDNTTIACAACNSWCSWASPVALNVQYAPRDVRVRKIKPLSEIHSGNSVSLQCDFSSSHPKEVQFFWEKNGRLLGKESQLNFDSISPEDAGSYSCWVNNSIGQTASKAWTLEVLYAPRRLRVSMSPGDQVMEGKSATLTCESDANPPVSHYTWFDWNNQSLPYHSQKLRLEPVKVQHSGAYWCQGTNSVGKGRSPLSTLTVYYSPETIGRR
property_name: ELISA OD 450
The answer should be written as a number, with no unit following it.

VM1010 (antibody, V domains shown, Humanized antibody with human constant region; also called anti-CD22 Mab clone VM1010) VH: EVQLVQSGAEVKKPGESLRISCKVSGYVFTSYWLHWIRQSPSRGLEWLGYINPRNDYTEYNRIFKGRFTISRDNAKNSLYLQMNSLRAEDTAVYYCARRGITTFYWGQG VL: EIVLTQSPATLSLSPGERATLSCKSSQSVLYSAVEKNYLAWYQQKPGKAPKLLIYWASTRERGVPSRFSGSGSGTDFTFTISSLQPEDIATYYCKQYLSSWTFGQG
0.7
VM1007 (antibody, V domains shown, Humanized antibody with human constant region; also called anti-CD22 Mab clone VM1007) VH: QVQLVQSGAEVKKPGASVKVSCKASGYVFTSYWLHWVRQARGQRLEWIGYINPRNDYTEYNRIFKGRVTITADKSTSTAYMELSSLRSEDTAVYYCARRGITTFYWGQG VL: AIQLTQSPSSLSASVGDRVTITCKSSQSVLYSAVEKNYLAWYQQKPGKAPKLLIYWASTRERGVPSRFSGSGSGTDFTFTISSLEAEDAATYYCKQYLSSWTFGQG
0.538

Please look at the following binder next.
Returns the measured ELISA OD 450 for the input binder. Input: VM1002 (antibody, V domains shown, Humanized antibody with human constant region; also called anti-CD22 Mab clone VM1002) VH: EVQLVQSGAEVKKPGESLRISCKGSGYVFTSYWLHWVRQAPGQGLEWMGYINPRNDYTEYNRIFKGRVTITADKSTSTAYMELSSLRSEDTAVYYCARRGITTFYWGQG VL: EIVLTQSPATLSLSPGERATLSCKSSQSVLYSAVEKNYLAWYQQKPGQAPRLLIYWASTRERGIPDRFSGSGSGTDFTLTISRLEPEDFAVYYCKQYLSSWTFGQG
0.495
